Assay: NFAT Signaling Pathway (AID 444);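 note: carbachol stimulus at about its EC50 of 1 µM final; % is set by controls: 0 for no effect and ±100 for the full control effect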
Conditions: Jurkat NFAT-bla M1, carbachol, beta-lactamase ratio, 5 h; at 7.69 µM (top of the series) unless noted
Results filed as inconclusive are left out. The source made the active and inactive calls. Calls come from the whole dose curve; as a rule, active = well fitted curve in either direction with a large enough effect (not every such curve was filed as active); inconclusive = small, poorly fitted or top-dose-only effect, or another doubt; inactive = flat fitted curve, though single readings scatter.
Property Measured: activity change, negative = inhibition

Structure As Smiles	activity change, negative = inhibition
N#Cc1ccccc1-c1nc(NCCN2CCOCC2)c2ccccc2n1	-3.19% (inactive)
O=c1c(-c2cc(F)cc(F)c2)nc2cnc(N3CCOCC3)nc2n1C1CC1	6.75% (inactive)
COC(=O)N1CCC[C@@]2(CCN(c3ccccn3)C2)C1	-1.97% (inactive)
CS(=O)(=O)N1CCC2(CCCN(C(=O)Nc3cccc(C#N)c3)C2)CC1	1.96% (inactive)
COCCNc1cc(-c2ccccc2CN(C)C)ncn1	-0.403% (inactive)
COc1ccc(Oc2ncc3nc(-c4ccc(Cl)cc4)c(=O)n(C[C@H]4CCCO4)c3n2)cc1	-18.6% (inactive)

Below: the item to evaluate.
Report activity change, negative = inhibition for CNc1ccnc(-c2c(C)noc2C)n1
1.59% (inactive)

Value source: PubChem BioAssay (NCATS)
